Numbers sourced from PubChem BioAssay.

# assayed.system: Follistatin (Homo sapiens) (UniProt P19883)
# Sequence (P19883 whole entry, looked up): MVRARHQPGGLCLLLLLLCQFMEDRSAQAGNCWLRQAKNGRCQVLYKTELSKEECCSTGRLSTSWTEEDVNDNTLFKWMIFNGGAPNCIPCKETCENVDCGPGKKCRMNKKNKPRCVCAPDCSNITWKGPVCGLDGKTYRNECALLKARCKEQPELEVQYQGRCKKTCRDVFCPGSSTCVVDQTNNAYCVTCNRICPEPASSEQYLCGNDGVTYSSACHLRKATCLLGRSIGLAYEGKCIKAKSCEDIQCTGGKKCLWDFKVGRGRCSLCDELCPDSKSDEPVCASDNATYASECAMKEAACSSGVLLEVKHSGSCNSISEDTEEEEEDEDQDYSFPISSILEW
# test.details: follistatin binders on small-molecule microarrays, primary screen, biochemical, small-molecule microarray, 635/667 nm fluorescence (AID 1132)
# recorded.conditions: FST binding, 635 nm fluorescence, higher = more signal
# maps each entry to its composite z-score
Answer as a number with no unit attached.

Solved cases (5 shown):
| compound | composite z-score |
| --- | --- |
| CC(=O)c1ccc(C(O)C2C=CC3C(=O)N(C)C(=O)C3N2NC(=O)OC(C)(C)C)cc1 (stereo unspecified) | 0.046 |
| COC(=O)[C@]1(CO)N=C(c2ccc(OCCCO)cc2)O[C@@H]1c1ccccc1CN=[N+]=[N-] | 0.996 |
| C=CCC(OC(C)=O)[C@@H]1[C@@H](N(Cc2cc3ccccc3o2)C(=O)Cc2ccc(OC)cc2)c2cc(OCCCO)ccc2N1C(=O)Cc1ccc(OC)cc1 (stereo partly specified) | 0.726 |
| C=CC[C@]1(C(=O)NCc2ccccc2)COC(c2ccc(OCCCO)cc2)=N1 | -0.431 |
| COC(=O)[C@@]1(CCS(=O)(=O)c2ccccc2)N=C(c2ccc(OCCCO)cc2)O[C@H]1c1ccccc1N=[N+]=[N-] | 0.993 |

Turning now to a further compound:
Look at this compound and give its reported composite z-score. CN(C)CCCC[C@@H]1NC(=O)[C@H]2C[C@@H](C(=O)NCc3ccc(F)cc3)[C@@H](c3ccc(O)cc3)N2C1=O
1.41

* * *

# test.details: binders of probe aHhip on microarray, primary screen, stem cell growth factor project, biochemical, small-molecule microarray, fluorescence 635/667 (AID 1087);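 further: score merges spot fluorescence at 667nm with spot signal to noise ratio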
# recorded.conditions: higher = more signal
# maps each entry to its composite z-score
Answer as a number with no unit attached.

Solved cases (3 shown):
| compound | value.observed |
| --- | --- |
| NCCCC[C@@H]1NC(=O)[C@H]2C[C@@H](C(=O)NCc3ccc(F)cc3)[C@@H](c3cccc(OCCO)c3)N2C1=O | -0.0994 |
| C=CCC(OC(C)=O)[C@@H]1[C@@H](N(Cc2ccc(-c3cccc(C(F)(F)F)c3)o2)C(=O)c2cccc3ccccc23)c2cc(OCCCO)ccc2N1C(=O)c1ccc2ccccc2c1 (stereo partly specified) | -0.15 |
| COC(=O)[C@@]1(Cc2ccccc2)[C@H]2c3cc(C(=O)N4CCCC4)n(Cc4ccc(C(F)(F)F)nc4)c3C[C@H]2CN1C(=O)c1ccccc1 | 0.0858 |

Look at this compound and give its reported composite z-score. O=C(NCC(F)(F)F)[C@@H]1c2ccccc2C(=O)N(CC23CC4CC(CC(C4)C2)C3)[C@H]1c1ccc(CO)cc1
-0.0776

Try this compound next: NC(=O)N1C(=O)C2C(C1=O)C1C=C(CCCO)C2C(c2ccc(CN3CCCC3)cc2)N1Cc1cccc(OC(F)(F)F)c1 (stereo unspecified)
-0.0296

Try this compound next: C=CCOC(=O)[C@H]1[C@@H]2C(=O)O[C@@H](c3ccccc3)[C@@H](c3ccccc3)N2[C@@H](c2ccc(OCCOC(=O)[C@@H]3C[C@@H]4C(=O)N[C@@H](CC(C)C)C(=O)N4[C@@H]3c3ccc(O)cc3)cc2)[C@]12C(=O)Nc1ccc(I)cc12
0.15

* * *

# test.details: fission yeast growth modulation, primary screen, strain 972, OD600, 24 h, no modulator (AID 1090);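 further: basal condition with compound alone and no growth modifier present; test concentration not given here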
# recorded.conditions: S. pombe 972 growth, higher = more signal, called active from +8 up or from −8 down
Answer Condition not met if z-score is under -0.2, and Condition met if it is -0.2 or more.

| molecule | label.value |
| --- | --- |
| Cc1ccc(S[C@]2(C(=O)NCCCN(C)C)CC(=O)N(Cc3ccccc3Cl)[C@@H]2c2ccc(CO)cc2I)cc1 | Condition not met |
| COC(=O)C1(CC(C)C)C=C2C(=C(C(C)C)C(=O)C2C)CN1 (configuration not stated) | Condition met |
| COC(=O)[C@@]1(Cc2ccc(F)cc2)[C@H]2c3cc(C(=O)N(C)C)n(CCN4CCOCC4)c3C[C@H]2CN1C(=O)c1ccccc1 | Condition met |

Please indicate if the recorded z-score for C=CC[C@]1(C(=O)NCCCOC)N=C(c2ccc(OCCCO)cc2)O[C@H]1c1ccccc1 meets or exceeds -0.2.
Condition not met

Try this molecule next: CN1C=C(C(=O)OCCS(C)(=O)=O)C(C(=O)OCCS(C)(=O)=O)=CC(CCCO)=CC1c1ccc(CN2CCCC2)cc1 (configuration not stated)
Condition not met

Try this molecule next: COCCCNC(=O)[C@@H]1c2ccccc2C(=O)N(C2CCCCC2)[C@H]1c1ccc(CO)cc1
Condition not met

Try this molecule next: CCOC(=O)C1=CCC(c2cc3ccccc3[nH]2)N(S(=O)(=O)c2ccccc2[N+](=O)[O-])C1 (configuration not stated)
Condition met

* * *

# maps each entry to its composite z-score
# test.details: binders of probe aFSTL3 on microarray, primary screen, stem cell growth factor project, biochemical, small-molecule microarray, fluorescence 635/667 (AID 1064);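 further: measures binding of the biotinylated anti-FSTL3 antibody to printed compounds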
# recorded.conditions: higher = more signal
Answer as a number with no unit attached.

Solved cases (2 shown):
| molecule | value.observed |
| --- | --- |
| CC(C)C[C@H]1NC(=O)[C@H](Cc2ccccc2)NC(=O)[C@@]23C(=O)N[C@@H](Cc4ccccc4)C2[C@H](C)[C@@]2(C)O[C@H]2C3/C=C/C/C=C\CNC1=O (stereo not given in full) | -0.263 |
| O=C1NC(=O)C2C1C=CC(C(O)c1ccc(F)cc1)N2Nc1ccccn1 (stereo not given) | 0.22 |

Look at this molecule and give its reported composite z-score. COC(=O)[C@@]1(CCS(=O)(=O)c2ccccc2)N=C(c2ccc(OCCCO)cc2)O[C@H]1c1ccccc1N=[N+]=[N-]
-0.0367

Try this molecule next: C=C(C(=O)CC[C@@H](OC(C)=O)c1cccc(OCCO)c1)C(C)C
-0.0377

Try this molecule next: CCN(CC)c1ccc(N2CC=CC34O[C@@H]5C=CCOC(=O)[C@@H]5[C@H]3C(=O)N(CCO)[C@@H]4C2=O)cc1 (stereo not given in full)
0.73

* * *

# assayed.system: Luciferin 4-monooxygenase (Photinus pyralis) (UniProt P08659)
# Sequence (P08659 whole entry, looked up): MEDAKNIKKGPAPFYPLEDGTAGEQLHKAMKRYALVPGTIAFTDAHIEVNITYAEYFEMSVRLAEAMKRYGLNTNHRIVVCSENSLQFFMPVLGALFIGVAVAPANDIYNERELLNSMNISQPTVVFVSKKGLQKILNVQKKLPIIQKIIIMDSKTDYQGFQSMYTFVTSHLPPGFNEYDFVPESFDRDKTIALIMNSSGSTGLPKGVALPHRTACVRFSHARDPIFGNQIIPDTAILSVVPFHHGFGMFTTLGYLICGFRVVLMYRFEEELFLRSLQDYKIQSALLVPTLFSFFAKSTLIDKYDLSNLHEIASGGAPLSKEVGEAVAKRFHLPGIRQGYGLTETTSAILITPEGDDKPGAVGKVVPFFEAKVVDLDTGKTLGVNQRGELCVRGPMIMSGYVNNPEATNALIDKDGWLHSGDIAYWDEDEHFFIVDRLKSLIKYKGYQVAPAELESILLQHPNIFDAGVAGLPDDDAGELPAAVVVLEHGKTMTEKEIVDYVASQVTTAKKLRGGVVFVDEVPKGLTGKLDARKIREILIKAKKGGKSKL
# test.details: firefly luciferase enzyme inhibitors, primary screen, biochemical, luminescence, purified enzyme, 2006 set (AID 1141);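 further: cell-free assay with purified firefly luciferase at 100 ng per well in PBS; test concentration not given here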
# recorded.conditions: SteadyGlo luminescence, 30 min, higher = more signal, called active from +8 up or from −8 down
Answer not met if z-score is under -0.7, and met if it is -0.7 or more.

Worked examples, 7 compounds total:
| structure.smiles.string | label.value |
| --- | --- |
| N[C@@H](Cc1ccccc1)Cn1cc(C2(O)CCCCC2)nn1 | met |
| CC(C)C[C@@H]1NC(=O)[C@@H]2C[C@H](C(=O)O)[C@H](c3ccc(O)cc3)N2C1=O | not met |
| C=C(C(=O)CC[C@@H](OC(C)=O)c1cccc(OCCO)c1)C(C)C | not met |
| COc1ccc(CCNC(=O)[C@@]2(Sc3ccc(C)cc3)CC(=O)N(C(C)C)[C@@H]2c2ccc(CO)cc2)cc1 | met |
| O=C1O[C@@H](c2ccccc2)[C@@H](c2ccccc2)N2[C@@H](c3ccc(O)cc3)[C@]3(C(=O)Nc4ccc(C#CC5=CCCCC5)cc43)[C@@H](C(=O)N3CCCCCCC3)[C@H]12 | not met |
| CCCCC(=C=CC[C@@H](O)c1cccc(OCCO)c1)C[C@@H](O)COCc1ccccc1 | not met |
| NCCCC[C@@H]1NC(=O)[C@H]2C[C@@H](C(=O)NCc3ccc(F)cc3)[C@@H](c3ccc(O)cc3)N2C1=O | met |

Now turn to the next compound.
Please indicate if the recorded z-score for COC(=O)[C@@]1(Cc2ccccc2)[C@@H]2[C@@H](CC(=O)[C@H]2CC(=O)C(=O)N(C)C)CN1C(=O)c1ccccc1 meets or exceeds -0.7.
met

* * *

# test.details: yeast growth modulation, basal conditions, primary screen, YJM789 clinical isolate, OD600, 24 h (AID 1089);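 further: growth of clinical yeast isolate S. cerevisiae YJM 789 seeded 1000 cells per well; test concentration not given here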
# recorded.conditions: S. cerevisiae YJM789 growth, higher = more signal, called active from +8 up or from −8 down
# maps each entry to its z-score
Answer as a number with no unit attached.

Look at this compound and give its reported z-score. CC(C)C(=C=CC[C@@H](O)c1ccc(OCCO)cc1)CCO
-1.21

Try this compound next: C[C@@H](OCc1ccccc1)C1NC(=O)[C@@]23C(=O)N[C@@H](Cc4ccccc4)C2[C@H](C)[C@@]2(C)O[C@H]2C3/C=C/C/C=C\CNC(=O)[C@H](Cc2ccccc2)NC1=O (stereo partly specified)
-0.712

Try this compound next: C=CC[C@]1(C(=O)NCc2ccccc2)COC(c2ccc(OCCCO)cc2)=N1
-1.4

Try this compound next: C=CC[C@@]1(C(=O)N(C)C)N=C(c2ccc(OCCCO)cc2)O[C@@H]1c1ccccc1
-0.69

Try this compound next: CC(C)CNC(=O)[C@@H]1c2ccccc2C(=O)N(C(C)C)[C@H]1c1ccc(CO)cc1
-1.37

Try this compound next: COC(=O)C1=CC(CCCO)=CC(c2ccc(CN3CCCC3)cc2)N(Cc2sc3ccccc3c2Cl)C=C1C(=O)OC (stereo unspecified)
-3.34
